From: ChEMBL document CHEMBL1151692

Listed below: Vmax(app) values for each entry.
- subject of test: Peptidylglycine alpha-amidating monooxygenase (Rattus norvegicus)
- method summary: Activity of rat recombinant peptidylglycine alpha-amidating monooxygenase assessed as stimulation of oxygen consumption
Where a SMILES comes first, the peptide text is derived from it. [ ]: non-standard residue; d: D form. The star is where a group is joined. Dansyl = CN(C)c1cccc2c(S(=O)(=O)*)cccc12; Bz = O=C(c1ccccc1)*
Form entry: value (s⁻¹) — number only.

Recorded results for 5 compounds are shown here.
• O=C(O)CNC(=O)c1ccc(Cl)cc1 = 4.1
• CCCc1ccc(C(=O)NCC(=O)O)cc1 = 5.1
• O=C(O)CNC(=O)CNC(=O)c1ccccc1 (Bz-Gly-Gly-OH) = 12
• CC(C)CCC(=O)NCC(=O)O = 6.6
• Cc1ccc(C(=O)NCC(=O)O)cc1 = 5.7

q: # lookup: Vmax(app) of O=C(O)CNC(=S)Cc1ccccc1
a: 2.4

q: # lookup: Vmax(app) of CC(C)[C@H](NC(=O)[C@H](Cc1ccc(O)cc1)NS(=O)(=O)c1cccc2c(N(C)C)cccc12)C(=O)N[C@H](C)C(=O)O (Dansyl-Tyr-Val-[dA]-OH)
a: 0.91

q: # lookup: Vmax(app) of O=C(O)CNC(=O)CNC(=O)c1ccc([N+](=O)[O-])cc1
a: 8.7
